Origin of the recorded values: patent US9504747B2

Field: Size (nm). Provide a value for each of the molecules that follow.
Assay: Particle size of the lipid nanoparticle (dynamic light scattering, Malvern Zetasizer)
Format: physicochemical
Conditions: Table 4; FVII siRNA LNP; Chol/DSPC/stealth lipid PEG-DMG, molar ratio 45/44/9/2; Z-average
// return numeric value only (unit: nm, not printed)

Prompt: Identify measured Size (nm) associated with CCCCC/C=C\C/C=C\CCCCCCCC(=O)OCCCCOc1cc(CN2CCCC2)cc(OCCCCOC(=O)CCCCCCC/C=C\C/C=C\CCCCC)c1
Completion: 96.1

Prompt: Identify measured Size (nm) associated with CCCCC/C=C\C/C=C\CCCCCCCC(=O)OCCOc1cc(CN(C)C)cc(OCCOC(=O)CCCCCCC/C=C\C/C=C\CCCCC)c1
Completion: 110.9

Prompt: Identify measured Size (nm) associated with CCCCCCCCCC(=O)OCCCCCCOc1cc(CN(C)C)cc(OCCCCCCOC(=O)CCCCCCCCC)c1
Completion: 109.3

Prompt: Identify measured Size (nm) associated with CCCCCCCCCCCC(=O)OCCCCCCCCOc1cc(CN(C)C)cc(OCCCCCCCCOC(=O)CCCCCCCCCCC)c1
Completion: 129.1

Prompt: Identify measured Size (nm) associated with CCCCCCCC(=O)OCCCCCCCCCCOc1cc(CN(C)C)cc(OCCCCCCCCCCOC(=O)CCCCCCC)c1
Completion: 157.8

Prompt: Identify measured Size (nm) associated with CCCCC/C=C\C/C=C\CCCCCCCC(=O)OCCCCOc1cc(CN(C)C)cc(OCCCCOC(=O)CCCCCCC/C=C\C/C=C\CCCCC)c1
Completion: 108.0

Prompt: Identify measured Size (nm) associated with CCCCC/C=C\C/C=C\CCCCCCCC(=O)OCc1cc(COC(=O)CCCCCCC/C=C\C/C=C\CCCCC)cc(CN(C)C)c1
Completion: 107.8

Prompt: Identify measured Size (nm) associated with CCCCCCCCCC(=O)OCCCCCCCCOc1cc(CN(C)C)cc(OCCCCCCCCOC(=O)CCCCCCCCC)c1
Completion: 109.4

Prompt: Identify measured Size (nm) associated with CCCCC/C=C\C/C=C\CCCCCCCC(=O)OCCCCOc1cc(CN(CC)CC)cc(OCCCCOC(=O)CCCCCCC/C=C\C/C=C\CCCCC)c1C
Completion: 101.9

Prompt: Identify measured Size (nm) associated with CCCCCCCC(=O)OCCCCCCCCCC(=O)OCc1cc(COC(=O)CCCCCCCCCOC(=O)CCCCCCC)cc(CN(C)C)c1
Completion: 128.7

Prompt: Identify measured Size (nm) associated with CCCCCCCC(=O)OCCCCCCCCCCOc1cc(CN(CC)CC)cc(OCCCCCCCCCCOC(=O)CCCCCCC)c1OCCCCCCCCCCOC(=O)CCCCCCC
Completion: 106.4

Prompt: Identify measured Size (nm) associated with CCCCCCCCCCCCC(=O)OCc1cc(COC(=O)CCCCCCCCCCCC)cc(CN(C)C)c1
Completion: 126.0
